Cited source for all entries: PubChem BioAssay (NCI)

test system: SW-620 colon; assay: NCI-60 one-dose screen, 48 h (100 = growth as untreated, 0 = no growth, -100 = all killed); settings: 10 µM
This is part of a sample that, as a whole, favours compounds with a hit. Of some 83,000 tested, about 20% had one in any assay.
Everything with growth lower than 60% is f; everything else, including exactly 60%, is t.

Solved entries:
• CN(Cc1ccccc1)Cc1ccc([N+](=O)[O-])cc1I = t
• CN(C)CCN1C(=O)c2cccc3cc(N)cc(c23)C1=O = f
• Cn1c(C(N)=O)cc2c1-c1nc(Nc3ccccc3)ncc1CCC2 = f
• CCCCCCCCCCCC[n+]1ccc(C(N)=O)cc1 = f
• Nc1ncn(C2OC(CO)C(O)C2O)c(=O)n1 (stereo unspecified) = f

Then this compound:
Is reported growth greater than or equal to 60% here: CC(C)(C)c1cc(Br)cc(C(C)(C)C)c1O
t

* * *

tested on: LOX IMVI melanoma; assay: NCI-60 one-dose screen, 48 h; settings: 10 µM
This is part of a sample that, as a whole, favours compounds with a hit. Of some 83,000 tested, about 20% had one in any assay. The source made the active and inactive calls. The calls were made as follows: active = growth percent below 10; inactive = the rest.
Classes to choose from: active, inactive

These recorded examples may help you get a feel for the data.
* O=C1/C(=C\c2ccc(Br)cc2)CN(C(=O)c2ccccc2F)C/C1=C\c1ccc(Br)cc1 | active
* COc1ccc(OC)c(/C=C/c2nc(SCc3ccccc3)n(-c3ccc(Cl)cc3)n2)c1 | inactive

// outcome(item) with item = COc1ccc(-c2cc(/C=C/C(=O)c3cc(OC)c(OC)c(OC)c3)[nH]n2)cc1OC
active

Next compound up: Cc1[nH]nc2c1C(c1cnn(C)c1)C(C#N)=C(N)O2 (stereo unspecified)
inactive

What about this compound? COc1ccc(/C(=C2/O[C@@H]([C@H]3COC(C)(C)O3)[C@H]3OC(C)(C)O[C@@H]23)c2cc(OC)c(OC)c(OC)c2)cc1O
inactive

Please give the result for CNc1ccc(CSc2ccc(C)cc2)cc1 too.
inactive

And what about the compound O=C(Nc1cccc(-n2cc(-c3ccncc3)c(-c3ccc(O)c(Cl)c3)n2)c1)c1cc(C(F)(F)F)cc(C(F)(F)F)c1 ?
inactive

Item: CN(C)C(=S)N/N=C\C=N/NC(=S)N(C)C
inactive

Record: O=C(CC(c1ccccc1)N1CCOCC1)c1ccccc1 (stereo unspecified)
inactive

Next compound up: N#CSCC1CC(O)(c2ccccc2)CC(c2ccc(Cl)cc2)O1 (stereo unspecified)
inactive

Note, next up: COc1ccc(/C=C2/CN(C(=O)c3ccc(C)cc3)C/C(=C\c3ccc(OC)cc3)C2=O)cc1
inactive

* * *

// values below are reported growth
system: KM12 colon; experiment: NCI-60 one-dose screen, 48 h (100 = growth as untreated, 0 = no growth, -100 = all killed); conditions: 10 µM
About 83,000 compounds went through this panel and 20% of them were active in at least one assay; those are over-represented in the sample as a whole.
Output spec: scalar in %, unitless text.

* COc1cc(/C=N/NC(=O)c2ccccc2Nc2cccc(C(F)(F)F)c2)cc(OC)c1OC | 16.6

Any idea what its growth is? The compound is CN(C)CCN=c1nc2c(c(N)n1-c1ccccc1)c(=S)n(-c1ccccc1)c(=S)n2-c1ccccc1
0.204

Let us now turn to Nc1ccc2c(c1)Cc1cc(N)c(Br)cc1-2
99.6

# repeat for O=C(CC(NC(=O)OCc1ccccc1)C(=O)OCc1ccccc1)OCc1ccccc1 (stereo unspecified)
108

Next up: N#CC1=C(Nc2ccccc2Cl)SC(c2ccccc2O)NC1=O (stereo unspecified)
116

Please answer likewise for O=C(c1ccc(Cl)cc1Cl)N1CCOCC1
110

* * *

system: HCC-2998 colon; assay: NCI-60 one-dose screen, 48 h (100 = growth as untreated, 0 = no growth, -100 = all killed); settings: 10 µM
Compounds without any hit were thinned out: in the full panel of roughly 83,000, 20% have a hit.
Classes based on growth: label 0: < 50%; label 1: ≥ 50% and < 90%; label 2: ≥ 90%

Before answering, review these 2 worked examples.
- C=C(Cl)[C@@](Cl)(CBr)CC[C@@H](Br)C(C)(C)Cl: label 0
- CC(C)(C)c1cc(Br)cc(C(C)(C)C)c1O: label 2

Form field 'band' for COc1ccc2c(c1)O/C(=C\c1ncc([N+](=O)[O-])n1C)C2=O
label 0

Subsequent entry: COc1ccc(NC(=O)Cc2nc3nc4sc(C)c(C)c4c(=O)n3[nH]2)cc1
label 2

Okay, and O=C(C[P+](c1ccccc1)(c1ccccc1)c1ccccc1)C[P+](c1ccccc1)(c1ccccc1)c1ccccc1 ?
label 0

Please answer likewise for CCCCCCCCCCCCC1C/C=C\CCCC(=O)O1 (stereo not drawn)
label 2

Try O=C(/C=C/c1cc2ccccc2[nH]c1=O)c1ccc2c(c1)OCO2 next.
label 2

Also COc1ccc(OC)c(/C=C/c2nc(SC)n(-c3ccc(Cl)cc3)n2)c1 ?
label 1

Subsequent entry: COc1cc(Nc2ncnc(Nc3ccc4c(n3)NC(=O)C(C)(C)O4)n2)cc(OC)c1OC
label 1

Lookup O=C(Nc1cccc(-n2cc(-c3ccncc3)c(-c3ccc(O)c(Cl)c3)n2)c1)Nc1ccc(Cl)c(Cl)c1
label 0

Moving on to O=S(=O)(NCCCNc1nccc(-c2c(-c3ccc(F)cc3)nc3sccn23)n1)c1ccc(F)cc1
label 0

And then CC(C)(C)NC/C(=C\c1ccccc1)C(=O)c1ccccc1 , what is it?
label 0

Would you kindly repeat that for Oc1[nH]c2ccc(Cl)cc2c1/C=c1/ccc2c(c1)N=C(c1cc(F)cc(F)c1)N=2 ?
label 1

* * *

test system: UO-31 renal; assay: NCI-60 one-dose screen, 48 h; conditions: 10 µM
Compounds without any hit were thinned out: in the full panel of roughly 83,000, 20% have a hit. The source made the active and inactive calls. The calls were made as follows: active = growth percent below 10; inactive = the rest.
Hello, when you answer, please use one of the following outcomes: active, inactive

- C[C@@H]1C=C2C(=O)O[C@@H]3CC[C@H](C1)[C@]23O: inactive
- O=[N+]([O-])c1ccc(N/N=C/c2cccc3ccccc23)nc1: inactive
- CN(C)Cc1cn(-c2ncc(-c3ccc(C(F)(F)F)cc3)c(NC3CCCCCC3)n2)nn1: inactive
- Clc1ccc(Nc2ccnc(NCCCNc3ccnc4cc(Cl)ccc34)n2)cc1: active
- O=C(CC(c1ccccc1)N1CCOCC1)c1ccccc1 (stereo not drawn): inactive

What did the test return for O=C(Nc1ccc(Cl)c([N+](=O)[O-])c1)Nc1nc2ccccc2s1 ?
inactive

Entry CC/C(=C(/c1ccc(OCCN(C)C)cc1)c1ccc(OC(=O)CCCCCCCCC(=O)c2c(C)[nH]c(/C=C3\N=C(c4ccc[nH]4)C=C3OC)c2C)cc1)c1ccccc1 please
inactive

Same for COc1cccc(NC(=O)c2sc3nc4c(cc3c2N)C(O)CCC4)c1 (stereo not drawn)
inactive

* * *

tested on: A498 renal; assay: NCI-60 one-dose screen, 48 h (100 = growth as untreated, 0 = no growth, -100 = all killed); conditions: 10 µM
This is part of a sample that, as a whole, favours compounds with a hit. Of some 83,000 tested, about 20% had one in any assay.
Parameter: growth. Scope: all listed entries.
The response must be a number in % with no trailing unit.

Answered cases to consult:
- COc1cc(Nc2ccnc(NCCNc3ccnc4cc(Cl)ccc34)n2)cc(OC)c1: 39.9
- COc1cc(Nc2ncnc(Nc3ccc4c(n3)NC(=O)C(C)(C)O4)n2)cc(OC)c1OC: -75.1
- COc1ccc(-c2nc3sc(C4CC4)nn3c2/C=C2/C(=O)Nc3ccc(OC)cc32)cc1: 49.4

Look up growth for this compound: CCN(CC)CCNc1ccc(CO)c2oc3cc(Cl)ccc3c(=O)c12
50.9

// next record CCN1CCN(c2nc3ccccc3c3c(=O)c4ccccc4sc23)CC1
37

Please answer likewise for N=C(N)c1ccc(-c2ccc(-c3ccco3)o2)cc1
33.3

Can you check O=S(=O)(NCCCNc1nccc(-c2c(-c3ccc(F)cc3)nc3sccn23)n1)c1ccc2ccccc2c1 next?
62.4

Query O=C(O)CCCCSc1ncnc2nc[nH]c12 next
132

* * *

system: OVCAR-5 ovarian; assay: NCI-60 one-dose screen, 48 h (100 = growth as untreated, 0 = no growth, -100 = all killed); settings: 10 µM
Compounds without any hit were thinned out: in the full panel of roughly 83,000, 20% have a hit. Active and inactive are the calls of the source. Rule for the calls: active = growth percent below 10; inactive = the rest.
property.name: growth

Previously resolved entries follow.
* CCOC(=O)N/N=C\C(C)=N\NC(=O)OCC | 100% (inactive)
* CN(CCc1ccccn1)c1ccccc1 | 94% (inactive)
* CCCC1(CC(=O)O)OCCc2c1[nH]c1ccccc21 (stereo not given) | 88.6% (inactive)
* CCCCCCCCCCCCCCCCCC(=O)OCCCCCCC | 106% (inactive)
* COc1ccc(/C=C/C(=O)Nc2ccc(-c3nc4ccc(OC)cc4s3)cc2)cc1 | 108% (inactive)

Quick one: growth for COc1cc2c(cc1OCCCCCCN1CCN(CC(=O)Nc3ccc(Cl)cc3C(=O)c3ccccc3Cl)CC1)N=CC1CCCN1C2=O (stereo not given) ?
-74.4% (active)

Next up: CCCCCCCC(C)NCCO (stereo not given)
111% (inactive)

Here is the next molecule: COc1cc(C2CC(c3ccc(Nc4ccnc5cc(Cl)ccc45)cc3)=NN2c2ccc(Cl)cc2)cc(OC)c1OC (stereo not given)
80.6% (inactive)

Query O=C1OCC2=C1C(c1cccc(Cl)c1)c1cc3c(cc1N2CCO)CCC3 (stereo not given) next
46.1% (inactive)

Input CCOC(=O)c1ccc(NC(=O)Nc2ncc(Cl)cc2Cl)cc1
101% (inactive)
